Target: Lyn kinase (human) (Homo sapiens, UniProt P07948)
Construct: purchased Upstate Biotechnology, Lake Placid, N.Y
Sequence (P07948 whole entry): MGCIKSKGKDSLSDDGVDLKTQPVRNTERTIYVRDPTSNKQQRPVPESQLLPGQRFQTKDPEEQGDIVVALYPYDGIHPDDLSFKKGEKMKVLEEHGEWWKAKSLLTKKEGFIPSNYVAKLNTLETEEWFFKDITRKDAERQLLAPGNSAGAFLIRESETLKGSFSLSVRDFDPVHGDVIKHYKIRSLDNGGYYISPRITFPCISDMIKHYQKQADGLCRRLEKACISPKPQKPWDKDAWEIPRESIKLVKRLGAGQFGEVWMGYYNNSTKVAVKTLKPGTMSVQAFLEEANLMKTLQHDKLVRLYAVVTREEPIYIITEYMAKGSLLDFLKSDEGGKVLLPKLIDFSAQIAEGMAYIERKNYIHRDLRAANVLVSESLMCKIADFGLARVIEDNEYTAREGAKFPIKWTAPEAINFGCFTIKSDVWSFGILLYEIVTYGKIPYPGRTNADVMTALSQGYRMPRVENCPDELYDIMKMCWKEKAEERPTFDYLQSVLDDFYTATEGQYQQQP
Assay: Lyn Kinase Assay
Format: biochemical
Details: test concentration of 2 μM; 2 µM
// % Inhibition (Lyn) lookup, one value per entry
Write the answer as a number in %, unit excluded.

Reference set, count: 3
Query smiles: O=C(Nc1ccc(CN2CCOCC2)cc1)c1sc2ncnc3c2c1NC(=O)N3c1c(Cl)cccc1Cl
Target: Lyn kinase (human) (Homo sapiens, UniProt P07948)
Readout unit: %
% Inhibition (Lyn): 69
--
Query smiles: O=C(Nc1ccc(CN2CCCCC2)cc1)c1sc2ncnc3c2c1NC(=O)N3c1ccc(Oc2ccccc2)cc1
Target: Lyn kinase (human) (Homo sapiens, UniProt P07948)
Readout unit: %
% Inhibition (Lyn): 16.8
--
Query smiles: O=C(Nc1ccc(CN2CCOCC2)cc1)c1sc2ncnc3c2c1NC(=O)N3c1ccc(Oc2ccccc2)cc1
Target: Lyn kinase (human) (Homo sapiens, UniProt P07948)
Readout unit: %
% Inhibition (Lyn): 26.6

Please report the recorded % Inhibition (Lyn) for `O=C(Nc1ccc(CCN2CCCCC2)cc1)c1sc2ncnc3c2c1NC(=O)N3c1ccc(Oc2ccccc2)c(F)c1` .
48.5

Could you tell me which % Inhibition (Lyn) is on file for `COc1cc(NC(=O)c2sc3ncnc4c3c2NC(=O)N4c2ccc(Oc3ccccc3)cc2)ccc1OCCN1CCCCC1` ?
50

May I ask what % Inhibition (Lyn) has been recorded for `CN1CCN(Cc2ccc(NC(=O)c3sc4ncnc5c4c3NC(=O)N5c3ccc(Oc4ccccc4)cc3)cc2)CC1` ?
50.0

Which % Inhibition (Lyn) reading was recorded for the compound `CCOC(=O)c1sc2ncnc3c2c1NC(=O)N3c1ccc(Oc2ccc(F)cc2)cc1` ?
6

Any idea what its % Inhibition (Lyn) is? The compound is `O=C(Nc1ccc(CN2CCOCC2)cc1)c1sc2ncnc3c2c1NC(=O)N3c1ccc(Oc2ccccc2)c(F)c1`
55

Return reported % Inhibition (Lyn); argument: `CCOC(=O)c1sc2ncnc3c2c1NC(=O)N3c1ccc(C)c(Br)c1`
13

====

# IC50 values compiled below
Target: HER-2 (Homo sapiens)
Construct: His6 with thrombin site (N)
Sequence (P04626 679-1255): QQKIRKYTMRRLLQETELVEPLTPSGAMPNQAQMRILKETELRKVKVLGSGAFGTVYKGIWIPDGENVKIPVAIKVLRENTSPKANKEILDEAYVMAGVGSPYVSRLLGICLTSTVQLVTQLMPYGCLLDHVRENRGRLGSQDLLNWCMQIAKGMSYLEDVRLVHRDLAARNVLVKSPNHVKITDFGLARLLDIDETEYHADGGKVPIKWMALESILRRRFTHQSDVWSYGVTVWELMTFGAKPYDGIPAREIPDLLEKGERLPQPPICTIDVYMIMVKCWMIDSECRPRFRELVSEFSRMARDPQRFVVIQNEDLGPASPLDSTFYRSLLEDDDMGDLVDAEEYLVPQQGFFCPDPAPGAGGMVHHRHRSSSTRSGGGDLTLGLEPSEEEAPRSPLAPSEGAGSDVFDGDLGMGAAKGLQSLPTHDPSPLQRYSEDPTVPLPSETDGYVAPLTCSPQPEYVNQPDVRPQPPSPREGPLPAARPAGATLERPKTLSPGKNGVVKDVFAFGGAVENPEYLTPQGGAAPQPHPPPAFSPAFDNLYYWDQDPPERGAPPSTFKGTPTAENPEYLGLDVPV
Assay: HER-2 Kinase Assay
Settings: value in parentheses

Please review the following examples before continuing.
Molecule: CN1CCN(Cc2ccc(NC(=O)c3sc4ncnc5c4c3NC(=O)N5c3ccc(OCc4cccc(F)c4)c(Cl)c3)cc2)CC1
Target: HER-2 (Homo sapiens)
IC50: 610 nM
--
Molecule: COc1ccc(N2C(=O)Nc3c(C(=O)Nc4ccc(CN5CCOCC5)c(OC)c4)sc4ncnc2c34)cc1Br
Target: HER-2 (Homo sapiens)
IC50: 980 nM
--
Molecule: O=C(NCCCO)c1sc2ncnc3c2c1NC(=O)N3c1ccc(Oc2cccc(F)c2)cc1
Target: HER-2 (Homo sapiens)
IC50: > 10000 nM

Reported IC50 for O=C(Nc1ccc(CN2CCCC(F)C2)cc1)c1sc2ncnc3c2c1NC(=O)N3c1ccc(Oc2ccccc2)cc1 (stereo not shown) : what is it?
34 nM

Item under review: `O=C(Nc1ccc(CN2CCCCC2)cc1)c1sc2ncnc3c2c1NC(=O)N3c1ccc(Oc2cccc(F)c2)cc1` . Reported IC50?
84 nM

====

In this section, each of the molecules is paired with its reported log10(IC50).
Molecular target: EGFR (Homo sapiens, UniProt P00533)
Construct: The intracellular portion of EGFR started at nucleotide 2189 (corresponding to amino acid 667) and ended at the termination codon; made in house; host or cells: Sf9 insect cells (baculovirus)
Sequence (P00533 669-1210 limits assumed): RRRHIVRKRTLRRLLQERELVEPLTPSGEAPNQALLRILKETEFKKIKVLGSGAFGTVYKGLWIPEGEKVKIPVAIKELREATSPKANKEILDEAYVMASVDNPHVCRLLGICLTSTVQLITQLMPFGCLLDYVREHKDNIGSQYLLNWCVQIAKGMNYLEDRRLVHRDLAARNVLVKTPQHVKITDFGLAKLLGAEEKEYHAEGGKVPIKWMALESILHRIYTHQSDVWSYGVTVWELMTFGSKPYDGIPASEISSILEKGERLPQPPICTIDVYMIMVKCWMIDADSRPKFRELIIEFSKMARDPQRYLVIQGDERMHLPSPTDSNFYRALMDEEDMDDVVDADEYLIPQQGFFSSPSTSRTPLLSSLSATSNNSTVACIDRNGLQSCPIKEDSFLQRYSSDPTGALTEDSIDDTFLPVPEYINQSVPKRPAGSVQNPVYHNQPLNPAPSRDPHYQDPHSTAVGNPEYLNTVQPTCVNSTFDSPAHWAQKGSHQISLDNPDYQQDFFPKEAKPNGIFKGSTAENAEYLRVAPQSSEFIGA
Assay: EGFR Kinase Assay
Format: biochemical
Conditions: GST-EGFR, ATP 5 μM
The common logarithm of IC50 in nM is what is listed.

Known results for molecules:
Molecule: O=C(NCCCO)c1sc2ncnc3c2c1NC(=O)N3c1ccc(Oc2cccc(F)c2)cc1 [Cpd 133]
log10(IC50): 1.53
//
Molecule: CN1CCC(NC(=O)c2sc3ncnc4c3c2NC(=O)N4c2ccc(OCc3ccco3)c(Cl)c2)CC1 [Cpd 247]
log10(IC50): 2.40
//
Molecule: O=C(Nc1ccc(CN2CCOCC2)cc1)c1sc2ncnc3c2c1NC(=O)N3c1cccc(Br)c1 [Cpd 36]
log10(IC50): 2.26
//
Molecule: CC1CCN(Cc2ccc(NC(=O)c3sc4ncnc5c4c3NC(=O)N5c3ccc(Oc4ccccc4)cc3)cc2)CC1 [Cpd 255]
log10(IC50): 1.61
//
Molecule: CN1CCC(NC(=O)c2sc3ncnc4c3c2NC(=O)N4c2ccc(Oc3ccc(F)cc3)cc2)CC1 [Cpd 118]
log10(IC50): 2.12
//
Molecule: O=C(NCCc1ccccn1)c1sc2ncnc3c2c1NC(=O)N3c1ccc(Oc2ccccc2)cc1 [Cpd 217]
log10(IC50): 2.35
//
Molecule: C#Cc1cccc(N2C(=O)Nc3c(C(=O)Nc4ccc(CNC5CCNCC5)cc4)sc4ncnc2c34)c1 [Cpd 24]
log10(IC50): 2.10

The record that follows has no log10(IC50) shown yet.
Fill in the blank: the reported log10(IC50) of COc1cc(NC(=O)c2sc3ncnc4c3c2NC(=O)N4c2ccc(Oc3cccc(F)c3)c(Cl)c2)ccc1OCCN1CCCCC1 [Cpd 161] is ____.
1.36

====

Target: c-Src kinase (human) (Homo sapiens)
Construct: purchased Upstate Biotechnology, Lake Placid, N.Y
Sequence (P12931 whole entry): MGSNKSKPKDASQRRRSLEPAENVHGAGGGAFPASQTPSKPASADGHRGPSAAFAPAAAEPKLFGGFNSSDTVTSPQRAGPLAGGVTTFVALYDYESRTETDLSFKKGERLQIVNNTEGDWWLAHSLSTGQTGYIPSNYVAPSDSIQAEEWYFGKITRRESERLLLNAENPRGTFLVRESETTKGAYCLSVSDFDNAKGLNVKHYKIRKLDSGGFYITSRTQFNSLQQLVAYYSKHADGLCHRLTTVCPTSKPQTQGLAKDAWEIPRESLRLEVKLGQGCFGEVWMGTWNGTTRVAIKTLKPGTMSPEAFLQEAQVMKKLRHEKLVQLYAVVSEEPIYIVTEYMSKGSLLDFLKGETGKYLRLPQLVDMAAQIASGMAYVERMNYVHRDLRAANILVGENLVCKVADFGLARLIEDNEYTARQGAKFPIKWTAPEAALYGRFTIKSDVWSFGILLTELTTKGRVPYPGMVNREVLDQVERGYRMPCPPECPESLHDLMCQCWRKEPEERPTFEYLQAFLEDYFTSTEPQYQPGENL
Experiment: c-Src Kinase Assay
Type: biochemical
Details: test concentration of 2 μM; multiple values are separate assay results
Kindly return met if reported inhibition at 2 µM is no lower than 20%; return not met if it is lower.

Compound: O=C(O)c1sc2ncnc3c2c1NC(=O)N3c1cc(OCc2cccc(F)c2)c(Cl)cc1Cl [Cpd 58]
Target: c-Src kinase (human) (Homo sapiens)
Class name: not met

Compound: CN1CCC(NC(=O)c2sc3ncnc4c3c2NC(=O)N4c2ccc3c(ccn3Cc3cccc(F)c3)c2)CC1 [Cpd 92]
Target: c-Src kinase (human) (Homo sapiens)
Class name: met

Compound: COc1cc(N2C(=O)Nc3c(C(=O)O)sc4ncnc2c34)cc(OC)c1OC [Cpd 42]
Target: c-Src kinase (human) (Homo sapiens)
Class name: not met

Compound: O=C(Nc1ccc(N2CCOCC2)cc1)c1sc2ncnc3c2c1NC(=O)N3c1ccc2c(ccn2Cc2cccc(F)c2)c1 [Cpd 94]
Target: c-Src kinase (human) (Homo sapiens)
Class name: not met

Compound: O=C(Nc1ccc(CN2CCOCC2)cc1)c1sc2ncnc3c2c1NC(=O)N3c1ccc(-c2ccc(Cl)cc2)cc1 [Cpd 140]
Target: c-Src kinase (human) (Homo sapiens)
Class name: met

Compound: COc1ccc(-c2sc3ncnc4c3c2NC(=O)N4c2ccc(F)c(Cl)c2)cc1OC [Cpd 9]
Target: c-Src kinase (human) (Homo sapiens)
Class name: met

Compound: COc1cc(N2C(=O)Nc3c(C(=O)Nc4ccc(CN5CCN(C)CC5)cc4)sc4ncnc2c34)ccc1Br [Cpd 85]
Target: c-Src kinase (human) (Homo sapiens)
Class name: not met

Compound: O=C(Nc1ccc(CN2CCOCC2)cc1)c1sc2ncnc3c2c1NC(=O)N3c1ccc(Oc2ccccc2)c(Cl)c1 [Cpd 138]
Target: c-Src kinase (human) (Homo sapiens)
Class name: met

Is inhibition at 2 µM for CN1CCCC(COc2ccc(NC(=O)c3sc4ncnc5c4c3NC(=O)N5c3ccc(Cl)cc3Cl)cc2)C1 (stereo not shown) [Cpd 32] at or above 20%?
met

Is the recorded value of inhibition at 2 µM equal to or greater than 20% for this compound? O=C(Nc1ccc(CN2CCCCC2)cc1)c1sc2ncnc3c2c1NC(=O)N3c1ccc(Cc2ccccc2)cc1 [Cpd 164]
met

In plain terms: is recorded inhibition at 2 µM at least 20% for O=C(Nc1ccc(CCN2CCCCC2)cc1)c1sc2ncnc3c2c1NC(=O)N3c1ccc(Oc2ccccc2)cc1 [Cpd 166] ?
met

Hi, just wondering whether CN(Cc1ccc(NC(=O)c2sc3ncnc4c3c2NC(=O)N4c2cc(OCc3cccc(F)c3)c(Cl)cc2Cl)cc1)C[C@H]1CCCO1 [Cpd 59] shows inhibition at 2 µM of 20% or higher.
not met

====

Target: Lyn kinase (human) (Homo sapiens, UniProt P07948)
Metric: IC50

Item `O=C(Nc1ccc(CN2CCOCC2)cc1)c1sc2ncnc3c2c1NC(=O)N3c1ccc(N2CCOCC2)cc1` with Lyn kinase (human) (Homo sapiens, UniProt P07948) - IC50?
1440 nM

====

Below: a set of entries, each annotated with reported pIC50.
Biological target: EGFR (Homo sapiens, UniProt P00533)
Construct: The intracellular portion of EGFR started at nucleotide 2189 (corresponding to amino acid 667) and ended at the termination codon
Experiment: EGFR Kinase Assay
Conditions: GST-EGFR, ATP 5 μM
# log scale: pIC50 equals minus log10 of the concentration in mol/L

Compound: CN1CCN(Cc2ccc(NC(=O)c3sc4ncnc5c4c3NC(=O)N5c3ccc(Sc4ccccc4)cc3)cc2)CC1 [Cpd 218]
Metric: pIC50
Assay value: 7.85

Compound: O=C(Nc1ccc(CN2CCCCC2)cc1)c1sc2ncnc3c2c1NC(=O)N3c1ccc(Oc2ccccc2)c(Cl)c1 [Cpd 135]
Metric: pIC50
Assay value: 7.74

Compound: NCc1ccc(NC(=O)c2sc3ncnc4c3c2NC(=O)N4c2ccc(F)c(Cl)c2)cn1 [Cpd 23]
Metric: pIC50
Assay value: 7.57

Compound: O=C(Nc1ccc(CN2CCCCC2)cc1)c1sc2ncnc3c2c1NC(=O)N3c1ccc(Oc2cccnc2)cc1 [Cpd 238]
Metric: pIC50
Assay value: 6.88

Compound: O=C(Nc1ccc(CN2CCOCC2)cc1)c1sc2ncnc3c2c1NC(=O)N3c1ccc(OCc2ccco2)c(Cl)c1 [Cpd 245]
Metric: pIC50
Assay value: 7.62

Compound: COc1cc(N2C(=O)Nc3c(C(=O)Nc4ccc(CN5CCCCC5)cc4)sc4ncnc2c34)c(Cl)cc1Cl [Cpd 33]
Metric: pIC50
Assay value: 5.72

Compound: COc1cc(NC(=O)c2sc3ncnc4c3c2NC(=O)N4c2ccc(F)c(Cl)c2)ccc1OCCN1CCOCC1 [Cpd 20]
Metric: pIC50
Assay value: 7.52

Compound: O=C(Nc1ccc(C(O)CN2CCOCC2)cc1)c1sc2ncnc3c2c1NC(=O)N3c1ccc(Oc2ccccc2)cc1 (stereo not shown) [Cpd 174]
Metric: pIC50
Assay value: 7.74

Compound: COc1cc(NC(=O)c2sc3ncnc4c3c2NC(=O)N4c2ccc(Sc3ccccc3)cc2)ccc1CN1CCCCC1 [Cpd 224]
Metric: pIC50
Assay value: 7.85

Compound: O=C(Nc1ccc(CN2CCOCC2)cc1)c1sc2ncnc3c2c1NC(=O)N3c1ccc(Oc2ccccc2)cc1 [Cpd 97]
Metric: pIC50
Assay value: 7.89

Recorded pIC50 for COc1cc(NC(=O)c2sc3ncnc4c3c2NC(=O)N4c2ccc(F)c(Cl)c2)ccc1OCCC1CCNCC1 [Cpd 22] , please?
7.38

I'd like to know its pIC50. The compound in question is O=C(Nc1ccc(CCN2CCCCC2)cc1)c1sc2ncnc3c2c1NC(=O)N3c1ccc(Oc2ccccc2)c(F)c1 [Cpd 114]
7.60
